# target.desc: human BCRP ATPase (Homo sapiens)
# Construct: purchased SOLVO Biotechnology, Szeged, Hungary; host or cells: Sf9 membrane preparations
# Sequence (Q9UNQ0 whole entry): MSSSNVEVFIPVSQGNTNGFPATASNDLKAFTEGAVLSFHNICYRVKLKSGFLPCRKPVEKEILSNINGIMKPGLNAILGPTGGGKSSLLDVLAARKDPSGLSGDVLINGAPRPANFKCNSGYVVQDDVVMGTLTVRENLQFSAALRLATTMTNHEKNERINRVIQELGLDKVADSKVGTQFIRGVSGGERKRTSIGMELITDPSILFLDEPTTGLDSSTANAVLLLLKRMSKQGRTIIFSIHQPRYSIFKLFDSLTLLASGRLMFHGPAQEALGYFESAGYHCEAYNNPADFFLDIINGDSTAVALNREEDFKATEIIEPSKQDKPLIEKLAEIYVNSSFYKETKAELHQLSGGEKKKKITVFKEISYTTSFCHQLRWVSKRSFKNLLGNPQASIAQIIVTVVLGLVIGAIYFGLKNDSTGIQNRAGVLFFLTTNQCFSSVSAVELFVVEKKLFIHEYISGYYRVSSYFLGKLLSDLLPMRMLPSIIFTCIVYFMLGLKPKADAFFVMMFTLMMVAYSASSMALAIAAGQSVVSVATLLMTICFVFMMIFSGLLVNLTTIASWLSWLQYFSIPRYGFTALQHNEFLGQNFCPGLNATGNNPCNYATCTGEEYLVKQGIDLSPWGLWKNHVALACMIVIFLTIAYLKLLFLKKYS
# experiment.notes: BCRP ATPase activation assay ([…] kit, Sf9 membrane preparations)
# Type: biochemical
# condition.parameters: 400 nM (submicromolar), Sf9 membranes containing BCRP, vanadate-sensitive ATPase activity
# Method: ATPase activity was evaluated using […] kits (SOLVO Biotechnology, Szeged, Hungary), according to the manufacturer’s instructions. FIGURE 2 Interactions of EGFRIs with BCRP ATPase. (A) Activation of BCRP-ATPase in Sf9 membrane preparations containing BCRP. Membranes were incubated with ATP and the tested compounds at 400 nM in the presence and absence of sodium orthovanadate. […] The effect of EGFRIs was evaluated in sulfasalazine (10 μM)-stimulated membranes. […]
attribute.measured: Activation of BCRP ATPase

INSERT INTO assay_data (molecule, attribute_measured, assay_result) VALUES
  ('CN(C)C/C=C/C(=O)Nc1ccc2ncnc(Nc3cccc(I)c3)c2c1 [ML06]', 'Activation of BCRP ATPase', 'activated BCRP ATPase'),
  ('CN(C)C/C=C/C(=O)Nc1ccc2ncnc(Nc3cc(Cl)c(Cl)cc3F)c2c1 [ML04]', 'Activation of BCRP ATPase', 'activated BCRP ATPase'),
  ('COCC(=O)Nc1ccc2ncnc(Nc3cc(Cl)c(Cl)cc3F)c2c1 [methoxy-ML03]', 'Activation of BCRP ATPase', 'activated BCRP ATPase'),
  ('O=C(CCl)Nc1cc2c(Nc3cc(Cl)c(Cl)cc3F)ncnc2cc1OCCOCCOCCOCCOCCOCCF [PEG6-ML05]', 'Activation of BCRP ATPase', 'no activating effect'),
  ('COCC(=O)Nc1ccc2ncnc(Nc3cccc(Br)c3)c2c1 [methoxy-Br-ML03]', 'Activation of BCRP ATPase', 'activated BCRP ATPase'),
  ('O=C(CCl)Nc1ccc2ncnc(Nc3cc(Cl)c(Cl)cc3F)c2c1 [ML05]', 'Activation of BCRP ATPase', 'activated BCRP ATPase'),
  ('O=C(/C=C/CN(CCO)CCO)Nc1cc2c(Nc3cc(Cl)c(Cl)cc3F)ncnc2cc1OCCOCCOCCOCCF [ML10]', 'Activation of BCRP ATPase', 'no activating effect');
